Source listed as PubChem BioAssay (NCI).

Item-by-item account of GI50
# System: RXF 393 renal
# method: NCI tumour cell line growth inhibition, 48 h

Field: example entries. Status: answers known.
O=C1NC(=O)/C(=C/c2c(Cl)nc3sccn23)S1 : > 65.7 µM
C[CH2][Sn]([CH2]C)([O]C(=O)c1cccc(OC)c1)[O][Sn]([CH2]C)([CH2]C)[O]C(=O)c1cccc(OC)c1 : 15 µM
COc1cc(C(=O)c2c(-c3ccccc3)oc3c(OC)cccc23)cc(OC)c1O : 0.313 µM
COc1ccc(-c2c(-c3cc(OC)c(OC)c(OC)c3)nc3sc(C4CC4)nn23)cc1OC : 5.46 µM
Cc1ccc(/C(=N/NS(=O)(=O)c2ccc([N+](=O)[O-])cc2)Sc2cc(Cl)c(C)cc2S(N)(=O)=O)cc1 : 47.7 µM
CC(=O)[CH-]C(=O)c1ccccc1.CC(=O)[CH-]C(=O)c1ccccc1.CCN(CC)CC[O-].CCN(CC)CC[O-].Cl.[Hf+4] : 29.7 µM
CC1OC(OC2C(O)C(OCCc3ccc(O)c(O)c3)OC(CO)C2OC(=O)/C=C/c2ccc(O)c(O)c2)C(O)C(O)C1OC1OCC(O)(CO)C1O (stereo not given) : > 100 µM
Cc1c([C@H](C(Cl)Cl)[C@H](O)[C@H]2C[C@H](C)C(=O)O2)ccc2c1C(=O)[C@H]1[C@H]2C[C@@H](Br)[C@@]23O[C@@H](CO[C@H]2O)CC13C (stereo not given in full) : 0.467 µM
C=C1c2c(C)nn(-c3ccc(OC)cc3)c2N(C)C23C[C@@H]1C1(C)c4c(C)nn(-c5ccc(OC)cc5)c4N(C)C(C)(C[C@H]12)C3 (stereo not given in full) : 1.9 µM
CCCSc1ccc2nc(NC(=O)OC)[nH]c2c1 : 0.208 µM

Ask: I'm curious: which GI50 was measured for Brc1ccc(SCN(CSc2ccc(Br)cc2)Cc2ccccc2)cc1 tested on RXF 393 renal?
Result: 5.54 µM

Ask: What is its GI50 for RXF 393 renal? Entry: CC1(C)CCC2(CC1)N[C@@H](C(=O)N[C@@H]1CC[C@@H](C(N)=O)OC1)[C@H](c1ccnc(Cl)c1F)[C@]21C(=O)Nc2cc(Cl)ccc21
Result: 2.26 µM

* * *

Listing of recorded log10(TGI) by entry.
# Test system: SK-MEL-5 melanoma
# method: NCI tumour cell line growth inhibition, 48 h
Heads up, the numbers here are log10 of TGI in µM units.

// known answers, use as guide
CC(C)=CC(=O)c1[nH]c2ccccc2c1CC(=O)NCCc1cn(C(c2ccccc2)(c2ccccc2)c2ccccc2)cn1 : 0.58
COC(=O)[C@@H](C)C[C@H](Cc1ccccc1)NC(=O)c1cccc([C@@H](C[C@H](C(C)C)N(C)C(=O)[C@@H](NC(=O)[C@H]2CCCCN2C)C2CC2)OC(C)=O)n1 : 0.06

Ask: Value lookup for log10(TGI); key = O=C(ON=c1c2ccccc2ccc2ccccc12)c1ccccc1
Result: 1.47

Ask: Suppose we examine the compound C[n+]1c2ccccc2n2c3ccccc3c(NCCCN3CCOCC3)c(C#N)c21 ; what log10(TGI) value has been reported?
Result: 0.99

Ask: Would you kindly share the measured log10(TGI) for O=C(Nc1ccc(-n2cc(-c3ccncc3)c(-c3ccc(O)c(Cl)c3)n2)cc1)c1cc(C(F)(F)F)cc(C(F)(F)F)c1 ?
Result: 1.28

* * *

# Test system: RPMI-8226 leukemia
# method: NCI tumour cell line growth inhibition, 48 h
In this section we review reported GI50 values for a set of compounds.

Cn1c(=O)n(CCCO)c(=O)c2c1nc(Oc1cccc(OC(F)(F)F)c1)n2Cc1ccc(Cl)cc1 : 10.4 µM

Ask: Name the reported GI50 value associated with the compound CC1(C)CCC2(CC1)N[C@@H](C(=O)N[C@@H]1CC[C@@H](C(N)=O)OC1)[C@H](c1ccnc(Cl)c1F)[C@]21C(=O)Nc2cc(Cl)ccc21
Result: 2.12 µM

Ask: Which GI50 value is on record for Cc1ccc(/C(=N/NS(=O)(=O)c2ccc([N+](=O)[O-])cc2)Sc2cc(Cl)c(C)cc2S(N)(=O)=O)cc1 ?
Result: 11.9 µM

Ask: Any idea what GI50 was measured for N#C/C(=C\c1cn(Cc2ccccc2)c2ccccc12)C(=O)Nc1ncc(Cc2ccccc2Cl)s1 ?
Result: 3.23 µM

Ask: Quick one: GI50 of O=c1c2c([nH]c3ccccc13)CCCC2 ?
Result: 81.5 µM

Ask: Using the record for O=C(NC(=S)Nc1ccccn1)c1ccccc1 , report its GI50.
Result: > 100 µM

* * *

# Tested on: MCF7 breast
# method: NCI tumour cell line growth inhibition, 48 h
readout-label: TGI

Below are worked cases with known answers.
O=C(NCCOC(=O)OCCNC(=O)NC1CCCCC1)NC1CCCCC1 : > 100 µM
CC(C)=CC(=O)c1[nH]c2ccccc2c1CC(=O)NCCc1cn(C(c2ccccc2)(c2ccccc2)c2ccccc2)cn1 : > 100 µM

Ask: Consider the compound COC1=CC(=O)c2c(ccc3ncnc(N)c23)C1=O and give its measured TGI.
Result: 4.12 µM

Ask: // query TGI value for entry C=CCN(Cc1ccncc1)C(=O)C(O)(c1ccccc1)c1ccccc1
Result: > 100 µM

Ask: Quick check: TGI of COc1ccc2c3c1O[C@H]1[C@@H](O)CC[C@@]4(O)[C@@H](C2)N(C)CC[C@]314 ?
Result: > 100 µM

Ask: Please look up its TGI: COc1ccc(S(=O)Cc2cc(OC)c(OC)c(OC)c2)cc1 (stereo not drawn)
Result: > 100 µM

Ask: Can you share its TGI? I mean this compound: O=C(CCC(C(=O)OCc1ccccc1)C(=O)OCc1ccccc1)Nc1ccc(OCc2ccccc2)cc1
Result: 32.8 µM

Ask: // returns reported TGI for input CCCCC(=O)OC[n+]1cccc(-c2c(COC(=O)NC(C)C)c(COC(=O)NC(C)C)c3n2CCC3)c1
Result: > 100 µM

* * *

# Tested on: HCT-15 colon
# method: NCI tumour cell line growth inhibition, 48 h
readout-label: TGI

Example entries begin here.
O=c1c2c([nH]c3ccccc13)CCCC2 : > 100 µM
COc1cccc2c1C(=O)c1c(O)c3c(c(O)c1C2=O)CC(O)(/C(C)=N/NC(=O)CCCCC(=O)N/N=C(\C)C1(O)Cc2c(O)c4c(c(O)c2C(OC2CC(N)C(O)C(C)O2)C1)C(=O)c1c(OC)cccc1C4=O)CC3OC1CC(N)C(O)C(C)O1 (stereo not drawn) : > 50 µM

Ask: Request the reported TGI associated with CCN1C(=O)N(C)C(O)c2c1nc1ccccn1c2=O (stereo not drawn)
Result: > 100 µM

Ask: Given O=C1NC(=O)/C(=C/c2c(Cl)nc3sccn23)S1 , state its recorded TGI.
Result: > 100 µM

Ask: I'd like to know its TGI. The compound in question is CC(=O)OC1CC2CC(=O)CC1N2C (stereo not drawn)
Result: > 100 µM

Ask: Please look up its TGI: O=C(Nc1ccccn1)/C(=C\C(=O)c1ccc(Cl)cc1)Nc1ccccc1
Result: > 10 µM

* * *

# Test system: KM12 colon
# method: NCI tumour cell line growth inhibition, 48 h
readout-label: TGI (µM)
Record the value in µM, omitting the unit from your answer.

CCOP(=S)(OCC)Oc1ccc2c(c1)OC(=O)C1(Cl)C2(C)C2(Cl)C(=O)Oc3cc(OP(=S)(OCC)OCC)ccc3C12C (stereo unspecified) : 30.7
COc1cc(/C=C/C(=O)c2ccc(Nc3nc(Nc4ccc(F)cc4)nc(Nc4ccc(Cl)cc4)n3)cc2)cc(OC)c1OC : 19.9
C=C1C(=O)O[C@@H]2O[C@@]3(C)CC[C@H]4[C@H](C)CC[C@@H]1[C@@]24O3 : 21.3
O=C1C=CC(=O)c2c(O)ccc(O)c21 : 13
CN(C)CCN=C1c2ccccc2-c2c(=O)n(CCN(C)C)c(O)c3cccc1c23 : 1.25
C[n+]1c2ccccc2n2c3ccccc3c(NCCCN3CCOCC3)c(C#N)c21 : 15.8
C=C1C(=O)O[C@H]2[C@H]1CC/C(CNC(=O)c1cccc3ccccc13)=C\CC[C@@]1(C)O[C@@H]21 : 21
CCCC(=O)N(C(=O)CCC)C1=C(Cl)C(=O)c2ccccc2C1=O : 15.5

# input for lookup
Ask: For the molecule shown here, N#Cc1c(-c2ccc(Cl)cc2)csc1NC(=O)Nc1ccc(Cl)c(C(F)(F)F)c1 , give the reported TGI.
Result: 6.96

* * *

# System: DU-145 prostate
# method: NCI tumour cell line growth inhibition, 48 h
# TGI per entry

Please review the following examples before continuing.
C=C1CC2(OC1=O)C(=O)N(C)c1ccc(I)cc12 (stereo unspecified) : 2.27 µM
Cc1ccc(C)c2c1C/C(=C\c1ccccc1C(=O)O)C2=O : > 100 µM
CCN1C(=O)C(=C/C=C/c2ccc(OC)cc2)C(=O)N(CC)C1=S : 34 µM
Cc1cc(C#N)c[n+](C)c1 : > 100 µM
CC(=O)Oc1ccc2[nH]c3c(C)c4cccc-4ccc3c2c1 : 12.7 µM
CCNCCCn1c2c(c3ccc(F)cc3c1=O)C(=O)c1cc(OC)cnc1-2 : 1.37 µM
CCOC(=O)Cc1csc(NC(=O)COC(=O)c2ccc(N)cc2)n1 : > 100 µM
C=CCSc1nc2c(N)ncnc2n1C1OC(CO)C(O)C1O (stereo unspecified) : > 100 µM
COc1ncc(-c2ccc3nccc(C#CCCCCC(=O)O)c3c2)cc1NS(=O)(=O)c1ccc(F)cc1F : > 100 µM
CCN(CC)CCn1ncc2c3c(=O)c4cccnc4n(CCN(CC)CC)c3ccc21 : > 10 µM

Now let's try a different one.
Ask: Reported TGI, compound O=C(Nc1ccc(-n2cc(-c3ccncc3)c(-c3ccc(O)c(Cl)c3)n2)cc1)c1cc(C(F)(F)F)cc(C(F)(F)F)c1 : ____
Result: > 25 µM
